# Study Target: human VEGFR2 kinase (Homo sapiens, UniProt P35968)
# Sequence (P35968 790-1356 limits assumed): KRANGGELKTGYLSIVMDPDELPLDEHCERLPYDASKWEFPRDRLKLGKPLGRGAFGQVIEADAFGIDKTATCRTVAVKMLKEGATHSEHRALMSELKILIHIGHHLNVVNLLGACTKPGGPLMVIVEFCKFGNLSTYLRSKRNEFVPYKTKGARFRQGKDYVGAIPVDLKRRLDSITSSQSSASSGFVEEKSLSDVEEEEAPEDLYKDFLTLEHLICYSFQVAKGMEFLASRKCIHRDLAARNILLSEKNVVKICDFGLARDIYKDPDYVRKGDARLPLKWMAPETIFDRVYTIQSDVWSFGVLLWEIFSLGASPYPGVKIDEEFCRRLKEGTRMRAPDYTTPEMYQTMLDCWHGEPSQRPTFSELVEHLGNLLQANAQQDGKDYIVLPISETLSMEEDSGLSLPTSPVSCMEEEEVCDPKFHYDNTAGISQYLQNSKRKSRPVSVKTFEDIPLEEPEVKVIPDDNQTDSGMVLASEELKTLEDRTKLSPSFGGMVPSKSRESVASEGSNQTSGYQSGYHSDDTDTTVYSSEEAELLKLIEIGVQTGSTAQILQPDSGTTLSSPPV
# Assay: KDR ELISA assay
# Format: biochemical
# Run Parameters: read-out: KDR IC50; 20 μM ATP
Parameter: IC50 (nM)
Give bare numbers, in nM.

What does the record list as IC50 for COc1cc2nccc(Oc3ccc(NC(=O)Nc4ccc(F)cc4F)c(F)c3)c2cc1OC [Ki8751, reference compound] ?
800
